Taken from patent US20250127913A1.

Biological target: UniProt:P14207
Sequence (P14207 17-255): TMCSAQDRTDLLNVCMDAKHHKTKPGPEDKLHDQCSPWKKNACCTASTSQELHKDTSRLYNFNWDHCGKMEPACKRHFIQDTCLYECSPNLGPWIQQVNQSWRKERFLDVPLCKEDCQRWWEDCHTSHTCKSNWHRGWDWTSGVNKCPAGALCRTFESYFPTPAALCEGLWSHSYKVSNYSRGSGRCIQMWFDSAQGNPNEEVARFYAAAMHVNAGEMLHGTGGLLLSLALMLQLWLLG
Experiment: Folate receptor binding assay (fluorescence polarization)
Details: 2.5 nM folate receptor beta, 2 nM FR-Cy probe, 2 hr incubation; read-out: FOLR2-FP
reportedProperty: IC50
I'd appreciate it if you included the unit after the number.

Qu. Provide IC50 value for the following molecule: Cc1nc2cc(F)c(-c3cnc(N4CCN(C(=O)COCCn5cc(COCCOCCOCCOCCNC(=O)CC[C@H](NC(=O)c6ccc(SCCc7cc8c(=O)[nH]c(N)nc8[nH]7)cc6)C(=O)O)nn5)CC4)nc3)nc2c(N[C@H](C)c2cc(C#N)ccc2F)c1Cl
Ans. 133 nM

Qu. Name the recorded IC50 of the item Cc1nc2cc(F)c(-c3cnc(N4CCN(C(=O)COCCOCCOCCOCCN5CCN(C(=O)CC[C@H](NC(=O)c6ccc(N(C)Cc7cnc8nc(N)[nH]c(=O)c8n7)cc6)C(=O)O)CC5)CC4)nc3)nc2c(N[C@H](C)c2cc(C#N)ccc2F)c1Cl in your answer.
Ans. 9.2 nM

Qu. Name the recorded IC50 of the molecule listed here: Cc1nc2cc(F)c(-c3cnc(N4CCN(C(=O)COCCOCCN5CCC6(CC5)CCN(C(=O)CC[C@H](NC(=O)c5ccc(NCc7cnc8nc(N)nc(O)c8n7)cc5)C(=O)O)CC6)CC4)nc3)nc2c(N[C@H](C)c2cc(C#N)ccc2F)c1Cl
Ans. 6.9 nM

Qu. Tell me its IC50 given Cc1nc2cc(F)c(-c3cnc(N4CCN(C(=O)COCCOCCOCCOCCOCCn5cc(CC[C@H](NC(=O)c6ccc(NCc7cnc8nc(N)nc(O)c8n7)cc6)C(=O)O)nn5)CC4)nc3)nc2c(N[C@H](C)c2cc(C#N)ccc2F)c1Cl as the entry.
Ans. 8.4 nM
